Source listed as patent US7112418B2.

Target: UniProt:Q62968
Type: cell-based
Settings: read-out: IC50 (TTX Sensitivity)
Parameter: IC50
Please state the number and follow it with the unit.

// NC1=N[C@H](O)[C@H]2[C@H]3O[C@]4(O)O[C@@H]([C@@H](O)[C@@]2(N1)[C@@H]4O)[C@]3(O)CO : IC50 value = 60 µM

---

Molecular target: SNS sodium channel (Rattus norvegicus)
Sequence (Q62968 other isoform, or with tags, fused parts or gaps with the stated changes): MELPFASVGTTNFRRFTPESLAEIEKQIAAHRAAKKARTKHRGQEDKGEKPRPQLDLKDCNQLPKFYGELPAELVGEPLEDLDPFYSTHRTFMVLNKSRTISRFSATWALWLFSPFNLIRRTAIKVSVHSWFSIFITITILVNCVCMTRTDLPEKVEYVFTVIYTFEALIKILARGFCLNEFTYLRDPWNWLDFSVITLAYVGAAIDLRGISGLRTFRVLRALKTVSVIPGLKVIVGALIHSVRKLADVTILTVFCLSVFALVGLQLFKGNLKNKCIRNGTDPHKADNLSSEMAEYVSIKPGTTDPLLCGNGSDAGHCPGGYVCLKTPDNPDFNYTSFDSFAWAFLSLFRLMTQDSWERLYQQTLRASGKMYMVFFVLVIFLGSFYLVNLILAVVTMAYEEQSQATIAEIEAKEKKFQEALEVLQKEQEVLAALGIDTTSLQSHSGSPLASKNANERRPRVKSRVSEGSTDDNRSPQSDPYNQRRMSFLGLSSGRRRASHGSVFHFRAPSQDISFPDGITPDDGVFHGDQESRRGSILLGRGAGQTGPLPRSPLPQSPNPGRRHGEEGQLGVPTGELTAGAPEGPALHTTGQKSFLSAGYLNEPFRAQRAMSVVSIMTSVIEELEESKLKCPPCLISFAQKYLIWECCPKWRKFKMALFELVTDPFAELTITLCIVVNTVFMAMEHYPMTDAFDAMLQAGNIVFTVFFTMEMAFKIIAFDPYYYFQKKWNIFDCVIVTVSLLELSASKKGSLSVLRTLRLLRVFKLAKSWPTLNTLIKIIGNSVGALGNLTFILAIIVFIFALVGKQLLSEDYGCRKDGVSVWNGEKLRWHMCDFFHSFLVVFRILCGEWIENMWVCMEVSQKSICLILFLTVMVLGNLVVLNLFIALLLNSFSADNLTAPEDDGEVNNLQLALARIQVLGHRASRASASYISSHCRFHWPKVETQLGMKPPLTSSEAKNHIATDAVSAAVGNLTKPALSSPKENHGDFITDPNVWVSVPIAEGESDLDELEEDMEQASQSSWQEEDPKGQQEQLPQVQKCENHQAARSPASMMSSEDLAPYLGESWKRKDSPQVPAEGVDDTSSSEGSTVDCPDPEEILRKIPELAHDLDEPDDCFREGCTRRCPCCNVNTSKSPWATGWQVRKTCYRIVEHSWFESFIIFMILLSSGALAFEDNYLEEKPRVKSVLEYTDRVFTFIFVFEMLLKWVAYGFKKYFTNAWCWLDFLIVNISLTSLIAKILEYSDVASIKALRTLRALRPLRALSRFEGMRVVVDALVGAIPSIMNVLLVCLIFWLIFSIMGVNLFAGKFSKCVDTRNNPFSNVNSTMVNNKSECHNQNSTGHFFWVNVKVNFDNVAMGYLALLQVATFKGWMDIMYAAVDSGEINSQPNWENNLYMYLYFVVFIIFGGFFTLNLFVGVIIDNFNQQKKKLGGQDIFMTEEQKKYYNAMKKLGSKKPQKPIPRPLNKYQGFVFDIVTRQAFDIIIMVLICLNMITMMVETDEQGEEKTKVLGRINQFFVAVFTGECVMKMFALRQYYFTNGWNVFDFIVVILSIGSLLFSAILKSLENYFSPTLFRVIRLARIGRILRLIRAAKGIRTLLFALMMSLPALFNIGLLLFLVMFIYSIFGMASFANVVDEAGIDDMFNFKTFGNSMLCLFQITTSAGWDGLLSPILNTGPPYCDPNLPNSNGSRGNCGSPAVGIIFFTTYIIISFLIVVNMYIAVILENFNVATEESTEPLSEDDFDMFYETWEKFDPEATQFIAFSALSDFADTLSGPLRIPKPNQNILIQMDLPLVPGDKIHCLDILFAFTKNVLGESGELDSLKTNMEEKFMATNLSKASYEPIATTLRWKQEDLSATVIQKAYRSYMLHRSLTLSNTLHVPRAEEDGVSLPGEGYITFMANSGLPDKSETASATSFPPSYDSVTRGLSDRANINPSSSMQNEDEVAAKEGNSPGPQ
Type: cell-based
Conditions: read-out: estimated half-maximal inhibitory concentration (IC50)
Parameter: pIC50
Reminder that pIC50 means the negative base-10 logarithm of the concentration expressed in mol/L.

Noted for NC1=N[C@H](O)[C@H]2[C@H]3O[C@]4(O)O[C@@H]([C@@H](O)[C@@]2(N1)[C@@H]4O)[C@]3(O)CO [TTX, tetrodotoxin] : its pIC50 reads 4.22
